# Tested on: Mus musculus
# assay_name: Antiinflammatory activity in Kunming mouse CFA-induced arthritis model assessed as PGE2 level in serum at 100 mg/kg/day, po for 1 week administered on day 8 post CFA induction by ELISA (reference value: 207 +/- 2.1 ng/L)
# Format: functional
For each of the compounds below, state its Activity.
Form field: result (number plus unit)

Entry COc1ccc(C(C)=O)c(O)c1 has what Activity?
137.1 ng/L

Next record, please: COc1cc(O)c(C(C)=O)cc1Br
142.3 ng/L

Similarly, CCCCCCCCCCCCCCCCOc1cc(OC)c(Br)cc1C(C)=O ?
150.1 ng/L

Param item: CCCCCCCCCCCCCCCCOc1cc(OC)ccc1C(C)=O
159.4 ng/L

These measurements were taken from ChEMBL document CHEMBL3862014.
